Could you please report measured zone of inhibition at 100 µg/mL for the items listed next?
test system: Escherichia coli; experiment: Antibacterial activity against Escherichia coli ATCC 25922 assessed as growth inhibition at 100 ug/mL after 24 hr by cup-plate method; format: functional; details: ATCC 25922, 24 h, read-out: DIZ

given_smiles=COc1ccccc1C(=O)Oc1cc(OC(=O)c2ccccc2OC)c(C(C)=O)cc1C(C)=O target_system="Escherichia coli" result="< 5 mm"
given_smiles=CC(=O)c1cc(C(C)=O)c(OC(=O)c2cccc([N+](=O)[O-])c2)cc1OC(=O)c1cccc([N+](=O)[O-])c1 target_system="Escherichia coli" result="< 5 mm"
given_smiles=COc1cccc(-c2cc(=O)c3cc4c(=O)cc(-c5cccc(OC)c5)oc4cc3o2)c1 target_system="Escherichia coli" result="5 mm"
given_smiles=O=c1cc(-c2ccco2)oc2cc3oc(-c4ccco4)cc(=O)c3cc12 target_system="Escherichia coli" result="15 mm"
given_smiles=COc1cccc(/C=C/C(=O)c2cc(C(=O)/C=C/c3cccc(OC)c3)c(OC)cc2OC)c1 target_system="Escherichia coli" result="5 mm"
given_smiles=O=C(/C=C/c1cccc(Cl)c1)c1cc(C(=O)/C=C/c2cccc(Cl)c2)c(O)cc1O target_system="Escherichia coli" result="< 5 mm"
given_smiles=COc1cc(OC)c(C(=O)/C=C/c2cc(OC)c(OC)c(OC)c2)cc1C(=O)/C=C/c1cc(OC)c(OC)c(OC)c1 target_system="Escherichia coli" result="10 mm"
given_smiles=Cc1ccccc1-c1cc(=O)c2cc3c(=O)cc(-c4ccccc4C)oc3cc2o1 target_system="Escherichia coli" result="5 mm"

// next entry
Record `O=C(O)c1cn(C2CC2)c2cc(N3CCNCC3)c(F)cc2c1=O` , field zone of inhibition at 100 µg/mL: > 20 mm

* * *

Could you please report measured zone of inhibition at 100 µg/mL for the items listed next?
tested on: Escherichia coli; test: Antibacterial activity against Escherichia coli ATCC 25922 assessed as growth inhibition at 100 ug/mL after 24 hr by cup-plate method; format: functional; details: ATCC 25922, 24 h, read-out: DIZ
One number for each entry, in mm.

Take a look at these entries with their results.
given_smiles=O=C(/C=C/c1ccco1)c1cc(C(=O)/C=C/c2ccco2)c(O)cc1O assay_readout="zone of inhibition at 100 µg/mL" result_number=15
given_smiles=O=C(/C=C/c1ccc(Cl)cc1)c1cc(C(=O)/C=C/c2ccc(Cl)cc2)c(O)cc1O assay_readout="zone of inhibition at 100 µg/mL" result_number=10
given_smiles=CCN(CC)c1ccc(/C=C/C(=O)c2cc(C(=O)/C=C/c3ccc(N(CC)CC)cc3)c(O)cc2O)cc1 assay_readout="zone of inhibition at 100 µg/mL" result_number=10

// next entry
Record `COc1cc(-c2cc(=O)c3cc4c(=O)cc(-c5cc(OC)c(OC)c(OC)c5)oc4cc3o2)cc(OC)c1OC` , field zone of inhibition at 100 µg/mL: 10

* * *

system: Pseudomonas aeruginosa; test: Antibacterial activity against Pseudomonas aeruginosa ATCC 27853 assessed as growth inhibition after 24 hr by broth dilution method; format: functional
Active and inactive are the calls of the source. The calls are words filed in the database; no cut-off is given here.
ASSAY READOUT: MIC

given_smiles=COc1cc(OC)c(C(=O)/C=C/c2ccco2)cc1C(=O)/C=C/c1ccco1 assay_readout=MIC result=inactive
given_smiles=CC(=O)c1cc(C(C)=O)c(OC(=O)c2ccccc2[N+](=O)[O-])cc1OC(=O)c1ccccc1[N+](=O)[O-] assay_readout=MIC result=inactive
given_smiles=CC(=O)c1cc(C(C)=O)c(OC(=O)c2cccc([N+](=O)[O-])c2)cc1OC(=O)c1cccc([N+](=O)[O-])c1 assay_readout=MIC result=inactive
